Data origin, for the record: patent US20140294878A1

Listing of entries alongside the reported % inhibition of Bet v 1-IgE binding.
target: IgE of patient serum 1; test: ELISA inhibition, serum 1 pre-incubated with 1.25 µg/ml inhibitor; competitor: wt Bet v 1 adsorbed on wells
Assay Endpoint: % inhibition of Bet v 1-IgE binding (%)

binder="wild-type Bet v 1-Mal d 1 hybrid molecule (SEQ ID NO: 3) (protein) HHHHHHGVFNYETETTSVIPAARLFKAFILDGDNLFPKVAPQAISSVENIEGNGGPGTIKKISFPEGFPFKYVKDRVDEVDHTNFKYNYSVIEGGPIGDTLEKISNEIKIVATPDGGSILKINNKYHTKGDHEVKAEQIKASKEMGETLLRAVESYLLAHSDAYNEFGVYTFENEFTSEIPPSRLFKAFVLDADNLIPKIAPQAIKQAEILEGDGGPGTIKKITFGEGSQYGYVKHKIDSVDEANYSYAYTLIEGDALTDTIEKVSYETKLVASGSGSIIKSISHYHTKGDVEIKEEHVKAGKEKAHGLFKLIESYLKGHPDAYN" assay_endpoint="% inhibition of Bet v 1-IgE binding" units_of_measure=% reported_result=93.6
binder="mixture of the single wt allergens (wt Bet v 1 and wt Mal d 1) (protein) chain 1: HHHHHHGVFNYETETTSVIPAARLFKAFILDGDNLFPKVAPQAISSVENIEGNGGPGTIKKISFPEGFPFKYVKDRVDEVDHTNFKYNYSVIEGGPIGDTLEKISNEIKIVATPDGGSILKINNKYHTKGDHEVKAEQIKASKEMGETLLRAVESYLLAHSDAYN chain 2: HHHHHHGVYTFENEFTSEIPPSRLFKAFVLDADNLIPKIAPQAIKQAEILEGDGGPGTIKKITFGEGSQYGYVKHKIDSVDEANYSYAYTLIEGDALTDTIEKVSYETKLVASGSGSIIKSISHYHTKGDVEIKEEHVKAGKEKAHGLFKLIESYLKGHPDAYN" assay_endpoint="% inhibition of Bet v 1-IgE binding" units_of_measure=% reported_result=97.1
binder="mixture of the two mutagenised allergens (mut Bet v 1-SEQ ID NO:6 and mut Mal d 1-SEQ ID NO:2) (protein) chain 1: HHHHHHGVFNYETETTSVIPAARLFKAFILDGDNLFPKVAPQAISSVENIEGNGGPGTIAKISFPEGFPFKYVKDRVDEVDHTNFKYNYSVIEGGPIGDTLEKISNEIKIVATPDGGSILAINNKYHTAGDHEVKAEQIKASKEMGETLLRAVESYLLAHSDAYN chain 2: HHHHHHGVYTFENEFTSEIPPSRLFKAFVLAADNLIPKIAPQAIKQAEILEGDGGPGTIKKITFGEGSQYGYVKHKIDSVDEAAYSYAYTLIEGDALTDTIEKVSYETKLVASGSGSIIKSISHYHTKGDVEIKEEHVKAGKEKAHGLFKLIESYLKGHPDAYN" assay_endpoint="% inhibition of Bet v 1-IgE binding" units_of_measure=% reported_result=88.4
